Test: inhibitors of DENV2 cytopathic effect, primary screen, cell-based, plate reader, single concentration (AID 651640)
Details: DENV2-infected cells, cytopathic effect rescue, at 9.99 µM
Hit rate of the full screen: of about 350,000 compounds, about 6,000 (1.7%) were called active. Not shown: some 5% with an inconclusive outcome. Cut-off read from the data, not from the text of the source: active = CPE inhibition above about 20% (passing the limit was not always enough); inconclusive = no clear call, values can overlap the other calls; tested in BHK-21 cells. The entries come from a sample that favours actives as a whole.
Response enum: active, inactive

Prompt: Could you check what this test reported for FC(F)(F)c1ccc(-c2cccc3c2C2CC3CCN2Cc2ccccc2)cc1 (stereo not drawn) ?
Completion: inactive

Prompt: Could you check what this test reported for Clc1cccc2c1C1CC2CCN1Cc1ccccc1 (stereo not drawn) ?
Completion: inactive

Prompt: Could you check what this test reported for COC(=O)C1=C(C)N(Cc2ccc(C(F)(F)F)cc2)C(=NCc2ccccc2)NC1c1ccccc1C(F)(F)F (stereo not drawn) ?
Completion: inactive

Prompt: Could you check what this test reported for CCCCN(C(C)=O)c1ccc2c(c1)C1CC2CCN1Cc1ccccc1 (stereo not drawn) ?
Completion: active

Prompt: Could you check what this test reported for Cc1ccccc1S(=O)(=O)N1CC(=O)N2[C@H](CO)[C@H](c3ccc(C#CC4CC4)cc3)[C@@H]2C1 ?
Completion: inactive

Prompt: Could you check what this test reported for CCOC(=O)[C@]12CCCC=C1N(Cc1ccc3c(c1)OCO3)C(=O)[C@H](CC(=O)N1CCN(C(=O)c3ccco3)CC1)C2 ?
Completion: inactive

Prompt: Could you check what this test reported for CCOC(=O)[C@]12CCCC=C1N(Cc1ccc(Cl)cc1Cl)C(=O)[C@H](CC(=O)N1CCCCC1)C2 ?
Completion: inactive

Prompt: Could you check what this test reported for COc1ccccc1NC(=O)N[C@H]1C=C[C@@H](CC(=O)N[C@@H](C)c2ccccc2)O[C@@H]1CO ?
Completion: active

Prompt: Could you check what this test reported for COc1cccc(-c2ccc3n(c2=O)C[C@@H]2[C@@H](CO)[C@H](C(=O)NC4CCC4)[C@H]3N2C)c1 ?
Completion: inactive

Prompt: Could you check what this test reported for CCCC#Cc1cnc2c(c1)C(=O)N([C@H](C)CO)C[C@@H](C)[C@@H](CN(C)C(=O)Nc1ccccc1F)O2 ?
Completion: inactive

Prompt: Could you check what this test reported for CCOC(=O)[C@]12CCC=C1N(Cc1ccco1)C(=O)[C@H](CC(=O)N1CCSCC1)C2 ?
Completion: inactive

Prompt: Could you check what this test reported for COC(=O)[C@]12CCCCC=C1N(Cc1ccc(Cl)cc1Cl)C(=O)[C@H](CC(=O)NCc1cccc3ccccc13)C2 ?
Completion: inactive

Prompt: Could you check what this test reported for Cc1cccc(C(=O)O)c1[N+](=O)[O-] ?
Completion: active

Prompt: Could you check what this test reported for COC(=O)[C@]12CCCCC=C1N(Cc1ccc3c(c1)OCO3)C(=O)[C@H](CC(=O)N1CCOCC1)C2 ?
Completion: inactive

Prompt: Could you check what this test reported for Cc1cc(C(=O)O)ccc1[N+](=O)[O-] ?
Completion: inactive

Prompt: Could you check what this test reported for CN(C)CC(=O)N[C@H]1CC[C@H](CCNC(=O)C2CCCCC2)O[C@H]1CO ?
Completion: inactive

Prompt: Could you check what this test reported for CO[C@H](CN(C)S(=O)(=O)c1ccc(Cl)cc1)[C@@H](C)CN(Cc1ccccc1Cl)[C@H](C)CO ?
Completion: inactive

Prompt: Could you check what this test reported for COc1ccccc1NC(=O)N[C@H]1CC[C@@H](CC(=O)N[C@@H](C)c2ccccc2)O[C@H]1CO ?
Completion: inactive
